Consider the following binders; for each one, report its koff.
target: T1, human PD-1 (#PD1-H82E4, AcroBiosystems) (human, UniProt Q15116 25-167); assay: SPR, PD-1 on captured IgG1
T1 construct: bought
T1 sequence (Q15116 25-167 limits assumed): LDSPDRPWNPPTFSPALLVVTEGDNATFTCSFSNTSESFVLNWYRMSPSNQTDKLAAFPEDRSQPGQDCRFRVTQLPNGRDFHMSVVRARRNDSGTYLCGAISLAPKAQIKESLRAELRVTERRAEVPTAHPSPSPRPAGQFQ
Give bare numbers, in s⁻¹.

{"binder": "KYC847 (antibody, human IgG1, V domains shown, human IgG1) VH: EVQLLESGGGLVQPGGSLRLSCAASGFTFSINAMTWVRQAPGKGLEWVSTISGSGFSTYYADSLKGRFTISRDNSKNTLYLQMNSLRAEDTAVYYCAKEVYGDYWGQGTLVTVSS VL: RSVLTQPPSASGTPGQRVSISCSGASSNIGSQSVFWYQQLPGTAPKLLIYSNNQRPSGVPDRFSGSKSGTSASLAISGLRSEDEADYYCAAWDDSLTIWVFGGGTKLTVL", "quantity": "koff", "test-value": "7.59e-05"}

Exercise: Field request: koff | item: 21A08Ap1 (antibody, human IgG1, V domains shown, human IgG1; also called anti-PD-1 antibody clone 21A08Ap1) VH: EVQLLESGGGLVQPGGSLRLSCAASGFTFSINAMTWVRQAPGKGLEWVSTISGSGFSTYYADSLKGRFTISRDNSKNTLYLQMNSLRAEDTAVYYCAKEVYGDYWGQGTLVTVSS VL: RSVLTQPPSASGTPGQRVSISCSGASSNIGSQSVFWYQQLPGTAPKLLIYSNNQRPSGVPDRFSGSKSGTSASLAISGLRSEDEADYYCAAWDDSLSIWVFGGGTKLTVL
Solution: 0.00011
